target_system: RORc ligand binding domain (Homo sapiens)
Construct: host or cells: E. coli
measurement_protocol: In Vitro RORc Ligand Binding Assay (25-[3H]hydroxycholesterol radioligand filtration)
test_conditions: In Vitro RORc Ligand Binding Assay; Table 4; read-out: RORc IC50
pIC50: −log10 of the molar value.
Some compounds, each annotated with its measured pIC50.
observed_property: pIC50

C[C@H]1CCC(c2ccccc2)S(=O)(=O)N1Cc1ccc(N2CCn3c(n[nH]c3=O)C2)cc1F (single isomer, unassigned) [Example 158] :: 5.41
C[C@H]1CCC(c2ccccc2)S(=O)(=O)N1Cc1ccc(C(=O)NCCCN2CCCC2=O)cc1 (stereo partly shown) [Example 272] :: 5.54
CC(=O)N1CCCN(c2ccc(CN3[C@@H](C)CCC(c4ccccc4)S3(=O)=O)c(F)c2)CC1 (single isomer, unassigned) [Example 81] :: 6.93
CON(C)C(=O)C1CCN(c2ccc(CN3[C@@H](C)CCC(c4ccccc4)S3(=O)=O)c(F)c2)CC1 (single isomer, unassigned) [Example 147] :: 5.75
CC[C@H]1CCC(c2ccccc2)S(=O)(=O)N1Cc1ccc(N2CCN(C(C)=O)CC2)cc1F (single isomer, unassigned) [Example 194] :: 7.74
C[C@H]1CCC(c2ccccc2)S(=O)(=O)N1Cc1ccc(N2CCn3c(n[nH]c3=O)C2)cc1F (single isomer, unassigned) [Example 157] :: 5.77
CC(=O)N1CCN(c2ccc(CN3C[C@@H](C)OCC(c4ccccc4)S3(=O)=O)c(F)c2)CC1 (single isomer, unassigned) [Example 31] :: 6.14
CC[C@H]1CCC(c2ccccc2)S(=O)(=O)N1Cc1ccc(N2CCC(n3cnnc3)CC2)cc1F (single isomer, unassigned) [Example 229] :: 6.77
CC(=O)N1CCN(c2ccc(CN3[C@@H](C)CCC(c4ccccc4)S3(=O)=O)cn2)CC1 (single isomer, unassigned) [Example 43] :: 5.82
CC(=O)N1CCN(c2ccc(CN3[C@@H](C)CCC(c4ccccc4)S3(=O)=O)cc2C#N)CC1 (single isomer, unassigned) [Example 113] :: 5.56
C[C@H]1CCC(c2ccccc2)S(=O)(=O)N1Cc1ccc(OC2CCS(=O)(=O)CC2)cc1F (single isomer, unassigned) [Example 38] :: 6.87
CC(=O)N1CCCN(C(=O)c2ccc(CN3[C@@H](C)CCC(c4ccccc4)S3(=O)=O)cc2)CC1 (stereo partly shown) [Example 285] :: 5.40
O=S1(=O)C(c2ccccc2)CC2(CC2)CN1Cc1ccc(N2CCC(n3cnnc3)CC2)cc1F (single isomer, unassigned) [Example 259] :: 7.24

* * *

Some molecules, each annotated with its measured log10(IC50).
target_system: RORc ligand binding domain (Homo sapiens, UniProt P51449)
Construct: host or cells: E. coli
Sequence (P51449 269-508 limits assumed, species assumed): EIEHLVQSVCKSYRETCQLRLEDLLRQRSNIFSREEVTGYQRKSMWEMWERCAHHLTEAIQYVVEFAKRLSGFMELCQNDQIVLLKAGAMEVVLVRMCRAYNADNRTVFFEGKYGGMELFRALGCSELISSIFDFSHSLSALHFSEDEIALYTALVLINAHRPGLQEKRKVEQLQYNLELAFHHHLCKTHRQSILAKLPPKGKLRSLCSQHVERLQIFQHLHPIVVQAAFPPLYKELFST
measurement_protocol: In Vitro RORc Ligand Binding Assay (25-[3H]hydroxycholesterol radioligand filtration)
test_conditions: In Vitro RORc Ligand Binding Assay; Table 4; read-out: RORc IC50
observed_property: log10(IC50) (log10 of the value in nM)

C[C@H]1CCC(c2ccccc2)S(=O)(=O)N1Cc1ccc(N[C@H]2CC[C@@H](n3cnnc3)CC2)cc1F (stereo partly shown) :: 1.86
CC(=O)N1CCN(c2ccc(CN3[C@@H](C)CCC(c4ccccc4)S3(=O)=O)nc2)CC1 (stereo partly shown) :: 3.19
CC(=O)N1CCN(c2ccc(CN3[C@H](C)CC(c4ccccc4)S3(=O)=O)c(F)c2)CC1 (single isomer, unassigned) [Example 65] :: 3.36
C[C@H]1CCC(c2ccccc2)S(=O)(=O)N1Cc1ccc(N2CCC(c3cc(O)no3)CC2)cc1F (single isomer, unassigned) [Example 152] :: 1.46
CC(=O)N1CCN(c2ccc(CN3[C@@H](C)CCC(c4ccccc4)S3(=O)=O)cc2Cl)CC1 (single isomer, unassigned) [Example 163] :: 1.76
C[C@@H](O)C(=O)N1CCN(c2ccc(CN3CCCCC(c4ccccc4)S3(=O)=O)cc2)CC1 (single isomer, unassigned) [Example 315] :: 2.51
O=C(CO)N1CCN(c2ccc(CN3CCCCC(c4ccccc4)S3(=O)=O)cc2)CC1 (single isomer, unassigned) [Example 318] :: 3.29
C[C@H]1CCC(c2ccccc2)S(=O)(=O)N1Cc1ccc(N2CCC(c3nnc[nH]3)CC2)cc1F (single isomer, unassigned) [Example 225] :: 2.18
C[C@H]1CCC(c2ccccc2)S(=O)(=O)N1Cc1ccc(C(=O)NCCN2CCCCC2=O)cc1 (stereo partly shown) :: 3.71
C[C@H]1CCC(c2ccccc2)S(=O)(=O)N1Cc1ccc(N2CCC(c3ccn[nH]3)CC2)cc1F (single isomer, unassigned) [Example 211] :: 1.30
C[C@H]1CCC(c2ccccc2)S(=O)(=O)N1Cc1ccc(C(=O)N2CCC(C#N)CC2)cc1 (stereo partly shown) :: 3.63
C[C@H]1CCC(c2ccccc2)S(=O)(=O)N1Cc1ccc(N2CCN(C(=O)CC#N)CC2)cc1F (single isomer, unassigned) [Example 69] :: 2.01
CC(=O)N1CCN(c2ccc(CN3[C@@H](C)CCC(c4ccccc4)S3(=O)=O)c(F)c2)C[C@H]1C(N)=O (stereo partly shown) :: 2.72
